- assay name: 3T3 NRU cytotoxicity/phototoxicity test
- Assay type: cell-based, mouse
- test conditions: mouse; cytotoxicity, no irradiation, BALB 3T3 clone A31, Neutral Red uptake; read-out: Mean CC50 ± SD, −Irr
Non-standard residues stand in square brackets, D forms with d. Residues, ends and D or L forms follow the SMILES beside them. Orn = NCCC[C@H](N)C(=O)O; Dap = NC[C@H](N)C(=O)O

molecule	CC50, µM
CC[C@H](C)[C@H](NC(=O)CNC(=O)[C@H](CO)NC(=O)[C@H](CC(C)C)NC(=O)[C@@H](NC(=O)[C@H](CCCCN)NC(=O)CNC(=O)[C@@H](NC(=O)[C@H](CC(C)C)NC(=O)[C@@H]1CCCN1C(=O)[C@H](CC(C)C)NC(=O)[C@@H](N)Cc1ccccc1)[C@@H](C)CC)C(C)C)C(=O)N[C@@H](CC(C)C)C(N)=O [DTF, FLPLIG-K-VLSGIL-NH2, reference compound] (H-FLPLIGKVLSGIL-NH2)	92.4
CC[C@H](C)[C@H](NC(=O)CNC(=O)[C@H](CO)NC(=O)[C@H](CC(C)C)NC(=O)[C@@H](NC(=O)[C@H](CCCN)NC(=O)CNC(=O)[C@@H](NC(=O)[C@H](CC(C)C)NC(=O)[C@@H]1CCCN1C(=O)[C@H](CC(C)C)NC(=O)[C@@H](N)Cc1ccccc1)[C@@H](C)CC)C(C)C)C(=O)N[C@@H](CC(C)C)C(N)=O [DTOrn, FLPLIG-Orn-VLSGIL-NH2] (H-FLPLIG[Orn]VLSGIL-NH2; N-terminus assumed)	337
CC[C@H](C)[C@H](NC(=O)CNC(=O)[C@H](CO)NC(=O)[C@H](CC(C)C)NC(=O)[C@@H](NC(=O)[C@H](CN)NC(=O)CNC(=O)[C@@H](NC(=O)[C@H](CC(C)C)NC(=O)[C@@H]1CCCN1C(=O)[C@H](CC(C)C)NC(=O)[C@@H](N)Cc1ccccc1)[C@@H](C)CC)C(C)C)C(=O)N[C@@H](CC(C)C)C(N)=O [DTDap, FLPLIG-Dap-VLSGIL-NH2] (H-FLPLIG[Dap]VLSGIL-NH2; N-terminus assumed)	924

* * *

- assay name: 3T3 NRU cytotoxicity/phototoxicity test
- Format: cell-based, mouse
- test conditions: mouse; phototoxicity, irradiated 2.4 J/cm^2, BALB 3T3 clone A31, Neutral Red uptake; read-out: Mean CC50 ± SD, +Irr
Non-standard residues stand in square brackets, D forms with d. Residues, ends and D or L forms follow the SMILES beside them. Dab = NCC[C@H](N)C(=O)O

molecule	CC50 at 24 h (µM)
CC[C@H](C)[C@H](NC(=O)CNC(=O)[C@H](CO)NC(=O)[C@H](CC(C)C)NC(=O)[C@@H](NC(=O)[C@H](CCCCN)NC(=O)CNC(=O)[C@@H](NC(=O)[C@H](CC(C)C)NC(=O)[C@@H]1CCCN1C(=O)[C@H](CC(C)C)NC(=O)[C@@H](N)Cc1ccccc1)[C@@H](C)CC)C(C)C)C(=O)N[C@@H](CC(C)C)C(N)=O [DTF, FLPLIG-K-VLSGIL-NH2, reference compound] (H-FLPLIGKVLSGIL-NH2)	88.4
CC[C@H](C)[C@H](NC(=O)CNC(=O)[C@H](CO)NC(=O)[C@H](CC(C)C)NC(=O)[C@@H](NC(=O)[C@H](CCN)NC(=O)CNC(=O)[C@@H](NC(=O)[C@H](CC(C)C)NC(=O)[C@@H]1CCCN1C(=O)[C@H](CC(C)C)NC(=O)[C@@H](N)Cc1ccccc1)[C@@H](C)CC)C(C)C)C(=O)N[C@@H](CC(C)C)C(N)=O [DTDab, FLPLIG-Dab-VLSGIL-NH2] (H-FLPLIG[Dab]VLSGIL-NH2; N-terminus assumed)	207

* * *

We begin with a simple list: items and their reported Inhibition effect, A. oxydans 9333.
- Tested on: Arthrobacter oxydans NBIMCC 9333
- Assay type: cell-based
- test conditions: 10 mg/mL; zone of peptide over zone of antibiotic x 100
Non-standard residues stand in square brackets, D forms with d. Residues, ends and D or L forms follow the SMILES beside them. Cit = NC(=O)NCCC[C@H](N)C(=O)O; Orn = NCCC[C@H](N)C(=O)O; Dap = NC[C@H](N)C(=O)O
recorded endpoint: Inhibition effect, A. oxydans 9333 (%)

compound	tested target	recorded endpoint	result value
CC[C@H](C)[C@H](NC(=O)CNC(=O)[C@H](CO)NC(=O)[C@H](CC(C)C)NC(=O)[C@@H](NC(=O)[C@H](CCCNC(N)=O)NC(=O)CNC(=O)[C@@H](NC(=O)[C@H](CC(C)C)NC(=O)[C@@H]1CCCN1C(=O)[C@H](CC(C)C)NC(=O)[C@@H](N)Cc1ccccc1)[C@@H](C)CC)C(C)C)C(=O)N[C@@H](CC(C)C)C(N)=O [DTCit, FLPLIG-Cit-VLSGIL-NH2] (H-FLPLIG[Cit]VLSGIL-NH2; N-terminus assumed)	Arthrobacter oxydans NBIMCC 9333	Inhibition effect, A. oxydans 9333	0.0
CC[C@H](C)[C@H](NC(=O)CNC(=O)[C@H](CO)NC(=O)[C@H](CC(C)C)NC(=O)[C@@H](NC(=O)[C@H](CCCN)NC(=O)CNC(=O)[C@@H](NC(=O)[C@H](CC(C)C)NC(=O)[C@@H]1CCCN1C(=O)[C@H](CC(C)C)NC(=O)[C@@H](N)Cc1ccccc1)[C@@H](C)CC)C(C)C)C(=O)N[C@@H](CC(C)C)C(N)=O [DTOrn, FLPLIG-Orn-VLSGIL-NH2] (H-FLPLIG[Orn]VLSGIL-NH2; N-terminus assumed)	Arthrobacter oxydans NBIMCC 9333	Inhibition effect, A. oxydans 9333	43.7
CC[C@H](C)[C@H](NC(=O)CNC(=O)[C@H](CO)NC(=O)[C@H](CC(C)C)NC(=O)[C@@H](NC(=O)[C@H](CN)NC(=O)CNC(=O)[C@@H](NC(=O)[C@H](CC(C)C)NC(=O)[C@@H]1CCCN1C(=O)[C@H](CC(C)C)NC(=O)[C@@H](N)Cc1ccccc1)[C@@H](C)CC)C(C)C)C(=O)N[C@@H](CC(C)C)C(N)=O [DTDap, FLPLIG-Dap-VLSGIL-NH2] (H-FLPLIG[Dap]VLSGIL-NH2; N-terminus assumed)	Arthrobacter oxydans NBIMCC 9333	Inhibition effect, A. oxydans 9333	53.0

* * *

Collected Inhibition zone, A. oxydans 9333 values appear next to each entry.
- Test system: Arthrobacter oxydans NBIMCC 9333
- Assay type: cell-based
- test conditions: peptide 10 mg/mL, 20 µL per disc, 24 h
Non-standard residues stand in square brackets, D forms with d. Residues, ends and D or L forms follow the SMILES beside them. Cit = NC(=O)NCCC[C@H](N)C(=O)O; Orn = NCCC[C@H](N)C(=O)O; Dap = NC[C@H](N)C(=O)O

compound	Inhibition zone, A. oxydans 9333 (mm)
CC[C@H](C)[C@H](NC(=O)CNC(=O)[C@H](CO)NC(=O)[C@H](CC(C)C)NC(=O)[C@@H](NC(=O)[C@H](CCCNC(N)=O)NC(=O)CNC(=O)[C@@H](NC(=O)[C@H](CC(C)C)NC(=O)[C@@H]1CCCN1C(=O)[C@H](CC(C)C)NC(=O)[C@@H](N)Cc1ccccc1)[C@@H](C)CC)C(C)C)C(=O)N[C@@H](CC(C)C)C(N)=O [DTCit, FLPLIG-Cit-VLSGIL-NH2] (H-FLPLIG[Cit]VLSGIL-NH2; N-terminus assumed)	0.0
CC[C@H](C)[C@H](NC(=O)CNC(=O)[C@H](CO)NC(=O)[C@H](CC(C)C)NC(=O)[C@@H](NC(=O)[C@H](CN)NC(=O)CNC(=O)[C@@H](NC(=O)[C@H](CC(C)C)NC(=O)[C@@H]1CCCN1C(=O)[C@H](CC(C)C)NC(=O)[C@@H](N)Cc1ccccc1)[C@@H](C)CC)C(C)C)C(=O)N[C@@H](CC(C)C)C(N)=O [DTDap, FLPLIG-Dap-VLSGIL-NH2] (H-FLPLIG[Dap]VLSGIL-NH2; N-terminus assumed)	9.8
CC[C@H](C)[C@H](NC(=O)CNC(=O)[C@H](CO)NC(=O)[C@H](CC(C)C)NC(=O)[C@@H](NC(=O)[C@H](CCCN)NC(=O)CNC(=O)[C@@H](NC(=O)[C@H](CC(C)C)NC(=O)[C@@H]1CCCN1C(=O)[C@H](CC(C)C)NC(=O)[C@@H](N)Cc1ccccc1)[C@@H](C)CC)C(C)C)C(=O)N[C@@H](CC(C)C)C(N)=O [DTOrn, FLPLIG-Orn-VLSGIL-NH2] (H-FLPLIG[Orn]VLSGIL-NH2; N-terminus assumed)	8.3
CC[C@H](C)[C@H](NC(=O)CNC(=O)[C@H](CO)NC(=O)[C@H](CC(C)C)NC(=O)[C@@H](NC(=O)[C@H](CCCCN)NC(=O)CNC(=O)[C@@H](NC(=O)[C@H](CC(C)C)NC(=O)[C@@H]1CCCN1C(=O)[C@H](CC(C)C)NC(=O)[C@@H](N)Cc1ccccc1)[C@@H](C)CC)C(C)C)C(=O)N[C@@H](CC(C)C)C(N)=O [DTF, FLPLIG-K-VLSGIL-NH2, reference compound] (H-FLPLIGKVLSGIL-NH2)	11.5
